# Tested on: E. coli K-12 MG1655 (DA4201)
# test details: AgSol-antibiotic synergy screening assay / MIC (Ag/Antibiotic screen)
# Type: cell-based, Escherichia coli
# protocol conditions: Escherichia coli, MG1655; antibiotic alone; nutrient broth; read-out: Antibiotic MIC, NB
# Description: The MIC (Minimal Inhibitory Concentration) of a bacterium to a certain antimicrobial agent gives a quantitative estimate of the susceptibility. […] The next day, the MIC is recorded as the lowest concentration of antimicrobial agent with no visible growth. […] The Minimum Inhibitory Concentration (MIC) of nanosilver (silver) was determined by two-fold dilution series in NaCl free Nutrient Broth (Sigma-Aldrich) in 15 ml screw cap tubes. […]
Recorded measurements of log10 of MIC, one per entry
# values: log10(MIC), units µg/mL

**Q:** Dear colleague, please send me the reported log10 of MIC for O=C(O)c1cn(C2CC2)c2cc(N3CCNCC3)c(F)cc2c1=O when you can.
**A:** -1.92

Next:
**Q:** Dear colleague, please send me the reported log10 of MIC for NC[C@H]1O[C@H](O[C@H]2[C@H](O)[C@@H](O[C@H]3O[C@H](CO)[C@@H](O)[C@H](N)[C@H]3O)[C@H](N)C[C@@H]2N)[C@H](N)C[C@@H]1O when you can.
**A:** -0.12

**Q:** Dear colleague, please send me the reported log10 of MIC for NC[C@H]1O[C@H](O[C@H]2[C@H](O)[C@@H](O[C@H]3O[C@H](CO)[C@@H](O)[C@H](N)[C@H]3O)[C@H](N)C[C@@H]2N)[C@H](O)[C@@H](O)[C@@H]1O when you can.
**A:** -0.30

**Q:** Dear colleague, please send me the reported log10 of MIC for CN[C@@H]1[C@H](O)[C@H](NC)[C@H]2O[C@@]3(O)C(=O)C[C@@H](C)O[C@H]3O[C@@H]2[C@H]1O when you can.
**A:** 1.08

**Q:** Dear colleague, please send me the reported log10 of MIC for CN(C)[C@@H]1C(O)=C(C(N)=O)C(=O)[C@@]2(O)C(O)=C3C(=O)c4c(O)cccc4[C@@](C)(O)[C@H]3C[C@@H]12 when you can.
**A:** -0.30

**Q:** Dear colleague, please send me the reported log10 of MIC for CO[C@H]1/C=C/O[C@@]2(C)Oc3c(C)c(O)c4c(O)c(c(/C=N/N5CCN(C)CC5)c(O)c4c3C2=O)NC(=O)/C(C)=C\C=C\[C@H](C)[C@H](O)[C@@H](C)[C@@H](O)[C@@H](C)[C@H](OC(C)=O)[C@@H]1C when you can.
**A:** 0.48

---

Recorded measurements of MIC, one per entry
# Test system: E. coli K-12 MG1655 (DA4201)
# test details: AgSol-antibiotic synergy screening assay / MIC (Ag/Antibiotic screen)
# Type: cell-based, Escherichia coli
# protocol conditions: Escherichia coli, MG1655; antibiotic alone; nutrient broth; read-out: Antibiotic MIC, NB
Could you give me the number in µg/mL? Just the number is fine.

**Q:** # lookup: E. coli K-12 MG1655 (DA4201) MIC, key = O=C(N[C@H](CO)[C@H](O)c1ccc([N+](=O)[O-])cc1)C(Cl)Cl
**A:** 3

**Q:** # lookup: E. coli K-12 MG1655 (DA4201) MIC, key = CC[C@H]1OC(=O)[C@H](C)[C@@H](O[C@H]2C[C@@](C)(OC)[C@@H](O)[C@H](C)O2)[C@H](C)[C@@H](O[C@@H]2O[C@H](C)C[C@H](N(C)C)[C@H]2O)[C@](C)(O)C[C@@H](C)C(=O)[C@H](C)[C@@H](O)[C@]1(C)O
**A:** 48

**Q:** # lookup: E. coli K-12 MG1655 (DA4201) MIC, key = CC1(C)S[C@@H]2[C@H](NC(=O)[C@H](N)c3ccccc3)C(=O)N2[C@H]1C(=O)O
**A:** 4

Next:
**Q:** # lookup: E. coli K-12 MG1655 (DA4201) MIC, key = [H]/N=C(/N)N[C@H]1[C@H](O)[C@@H](O)[C@H](O[C@@H]2O[C@@H](C)[C@](O)(C=O)[C@H]2O[C@@H]2O[C@@H](CO)[C@H](O)[C@@H](O)[C@@H]2NC)[C@@H](N/C(N)=N\[H])[C@@H]1O
**A:** 0.5

**Q:** # lookup: E. coli K-12 MG1655 (DA4201) MIC, key = CO/N=C(\C(=O)N[C@@H]1C(=O)N2C(C(=O)O)=C(COC(C)=O)CS[C@H]12)c1csc(N)n1
**A:** 0.094
